From: patent US20250163162A1

# test-system: T1, IL10Rα/IL2Rγ receptor (human, UniProt Q13651 22-578; P31785 23-369)
# T1 sequence (looked up) 1: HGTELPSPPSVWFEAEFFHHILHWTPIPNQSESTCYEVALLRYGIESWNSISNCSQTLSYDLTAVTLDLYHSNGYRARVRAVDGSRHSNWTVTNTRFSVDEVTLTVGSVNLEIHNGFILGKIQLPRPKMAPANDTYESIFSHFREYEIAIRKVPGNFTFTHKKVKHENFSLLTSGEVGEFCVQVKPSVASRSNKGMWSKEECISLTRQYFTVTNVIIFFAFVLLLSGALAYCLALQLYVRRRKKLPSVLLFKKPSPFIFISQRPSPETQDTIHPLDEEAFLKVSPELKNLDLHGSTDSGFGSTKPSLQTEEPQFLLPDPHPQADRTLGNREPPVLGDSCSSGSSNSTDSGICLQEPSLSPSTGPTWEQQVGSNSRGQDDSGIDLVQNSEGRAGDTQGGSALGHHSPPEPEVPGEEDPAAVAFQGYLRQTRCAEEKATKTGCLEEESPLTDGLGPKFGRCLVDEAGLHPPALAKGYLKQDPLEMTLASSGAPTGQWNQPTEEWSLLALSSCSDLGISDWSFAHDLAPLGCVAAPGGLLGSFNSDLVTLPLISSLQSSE
# T1 sequence (looked up) 2: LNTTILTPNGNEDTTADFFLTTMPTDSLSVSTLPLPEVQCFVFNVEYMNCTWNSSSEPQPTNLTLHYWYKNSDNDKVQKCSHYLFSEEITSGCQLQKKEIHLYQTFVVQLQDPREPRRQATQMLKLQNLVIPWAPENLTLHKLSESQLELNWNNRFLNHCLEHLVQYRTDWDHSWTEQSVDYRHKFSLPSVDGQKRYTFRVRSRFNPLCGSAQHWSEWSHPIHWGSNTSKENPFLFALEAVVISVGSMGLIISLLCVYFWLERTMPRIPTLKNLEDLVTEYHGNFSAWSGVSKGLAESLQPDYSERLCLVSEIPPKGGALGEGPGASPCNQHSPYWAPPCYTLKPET
# assay-procedure: cell-based or functional assay
Recorded pSTAT3 MFI, NK cells, 0.0001 nM (unstimulated 1315) for the following binders
Dear colleague, please return just the value in MFI, with no unit written.

The following binders have reported results that may help.
| binder | reported |
| --- | --- |
| DR441(DR236-DR231) (bispecific antibody) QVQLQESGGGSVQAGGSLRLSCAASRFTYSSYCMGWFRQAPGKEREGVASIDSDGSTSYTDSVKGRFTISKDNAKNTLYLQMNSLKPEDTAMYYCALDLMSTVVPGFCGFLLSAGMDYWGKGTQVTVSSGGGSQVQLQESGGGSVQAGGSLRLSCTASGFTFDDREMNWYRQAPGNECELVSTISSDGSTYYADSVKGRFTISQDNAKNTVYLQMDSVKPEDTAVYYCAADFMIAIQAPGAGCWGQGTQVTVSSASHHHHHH | 1250 |
| DR465(DR240-DR231) (bispecific antibody) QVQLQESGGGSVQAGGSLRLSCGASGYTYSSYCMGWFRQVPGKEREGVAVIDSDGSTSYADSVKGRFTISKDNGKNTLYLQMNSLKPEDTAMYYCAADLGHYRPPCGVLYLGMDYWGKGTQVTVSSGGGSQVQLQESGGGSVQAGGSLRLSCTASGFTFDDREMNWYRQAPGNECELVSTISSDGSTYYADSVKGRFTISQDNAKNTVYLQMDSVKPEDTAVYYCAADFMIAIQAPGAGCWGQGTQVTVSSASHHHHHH | 1220 |

With those in mind, consider the next binder.
Request the reported pSTAT3 MFI, NK cells, 0.0001 nM (unstimulated 1315) associated with DR471(DR241-DR231) (bispecific antibody) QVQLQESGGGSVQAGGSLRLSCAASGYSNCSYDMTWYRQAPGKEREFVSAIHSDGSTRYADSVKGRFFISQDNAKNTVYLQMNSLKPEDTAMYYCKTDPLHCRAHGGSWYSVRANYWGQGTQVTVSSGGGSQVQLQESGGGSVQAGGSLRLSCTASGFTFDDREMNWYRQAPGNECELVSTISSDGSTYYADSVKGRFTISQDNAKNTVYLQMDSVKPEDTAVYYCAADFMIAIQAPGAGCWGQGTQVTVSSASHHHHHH 1230
